Tested on: MCF7 breast
method-summary: NCI tumour cell line growth inhibition, 48 h
observable: TGI

Fill in: TGI of CN(C)c1ccc(C(=NN)c2ccc(N(C)C)cc2)cc1 is ___
> 100 µM

Fill in: TGI of O=[N+]([O-])c1nccn1CCCNCCCn1ccnc1[N+](=O)[O-] is ___
> 100 µM

Fill in: TGI of CCCCCCN(C)Cc1ccc(OCCOc2ccc(CN(C)CCCCCC)cc2)cc1 is ___
2.79 µM

Fill in: TGI of CCC(=O)NCCc1c2c3c(ccnc3c3ncsc13)-c1ccccc1N2 is ___
> 100 µM

Fill in: TGI of Cn1c(-c2ccc(N=NNc3ccc(-c4n[nH]c(=S)n4C)cc3)cc2)n[nH]c1=S is ___
> 100 µM

Fill in: TGI of CC(C)CN(CC#N)CC(C)C is ___
> 100 µM

Fill in: TGI of CC(C)(C)c1ccc(O)c(CN(Cc2cc(C(C)(C)C)ccc2O)C2CCCCC2)c1 is ___
35.5 µM

Fill in: TGI of COc1ccc(Nc2nc3ccccc3nc2C(=O)O)cc1OC is ___
> 100 µM

Fill in: TGI of O=C(O)C12C3CCC(O3)C1(C(=O)O)C1CCC2O1 (stereo not given) is ___
> 100 µM

Fill in: TGI of CC1OC(O[C@H]2CC[C@]3(C=O)[C@H]4CC[C@]5(C)[C@H](C6=CC(=O)OC6)CC[C@]5(O)[C@@H]4C=C[C@]3(O)C2)CC(O)C1O (stereo not given in full) is ___
2.71 µM

---

Test system: UO-31 renal
method-summary: NCI tumour cell line growth inhibition, 48 h
Catalogue of GI50 readings, one per entry.

Recorded GI50 for C[C@@H]1CC[C@@H]2[C@@H](C)C[C@H]3[C@@H]4C(C)(C)OC(=O)[C@]4(C)C(=O)[C@@]23C1=O with UO-31 renal, please?
> 100 µM

---

Tested on: MDA-MB-231 breast
method-summary: NCI tumour cell line growth inhibition, 48 h
observable: TGI

Fill in: TGI of Cc1nnc(-c2ccc(C)c(-c3ccc(C(=O)NCc4ccc(Cl)cc4)cc3)c2)o1 is ___
> 25 µM

Fill in: TGI of CC(=O)N=C1N(/C=C2\C(=O)Oc3ccccc3C2=O)C(=O)/C(=C/c2ccccc2Cl)N1C is ___
> 100 µM

Fill in: TGI of NNC(=S)Nc1cccc(Cl)c1 is ___
> 100 µM

Fill in: TGI of N#Cc1c(N)c(C#N)c2c(c1-c1ccc(Cl)cc1)COc1ccccc1-2 is ___
92.3 µM

Fill in: TGI of Cn1c(=O)oc2cc(Br)ccc21 is ___
> 100 µM

Fill in: TGI of CN1CCN(Cc2ccc(NC(=O)c3cncc(C#Cc4cnn5ccccc45)c3)cc2C(F)(F)F)CC1 is ___
3.05 µM

---

Test system: HS 578T breast
method-summary: NCI tumour cell line growth inhibition, 48 h
observable: GI50

Fill in: GI50 of CCOC(=O)c1cc(-c2ccc(OC)c(OC)c2)[nH]c1N/N=C/c1c(Cl)cccc1Cl is ___
2.71 µM

---

System: NCI-H460 lung
method-summary: NCI tumour cell line growth inhibition, 48 h
observable: TGI

Study these solved cases before continuing.
- compound: "Cc1c(-c2ccccc2)c(C#N)c2nnn(-c3cccc(Cl)c3)c(=O)n12"
  measured: "> 100 µM"
- compound: "COc1cc2c(c(OC(C)=O)c1OC(C)=O)-c1ccc(SC)c(=O)cc1C(NC(C)=O)CC2 (configuration not stated)"
  measured: "20 µM"
- compound: "COC(=O)c1ccc2c(c1)c1c(C)c3ccncc3c(C)c1n2C"
  measured: "12.6 µM"
- compound: "O=C1[C@H](Cl)[C@H]2c3cc4ccccc4nc3Oc3ccccc3N12"
  measured: "> 100 µM"

Fill in: TGI of O=C1C(Cl)C(c2cc3cc(Br)ccc3nc2Cl)N1c1c(Cl)cccc1Cl (configuration not stated) is ___
> 25 µM
